- test-system: Nucleoprotein (Lymphocytic choriomeningitis virus (strain Armstrong))
- assay-summary: qHTS for Inhibitors of the Functional Ribonucleoprotein Complex (vRNP) of Lymphocytic Choriomeningitis Arenaviruses (LCMV): LCMV Primary Screen - GLuc reporter signal (AID 1347086); note: nearly all actives have a fitted effect of over 70% in size
- study-conditions: LCMV minigenome vRNP cell assay, Gaussia luciferase reporter; series mostly up to 57.5 µM
Results filed as inconclusive are left out. The source made the active and inactive calls. Calls come from the whole dose curve.
Possible outcomes: YES (active), NO (inactive)

>  <compound>
O=C(O)c1cc(=O)c2c(Cl)cc(Cl)cc2[nH]1

>  <test-system>
Nucleoprotein (Lymphocytic choriomeningitis virus (strain Armstrong))

>  <cat>
NO

$$$$
>  <compound>
CCc1cnn2c(NCc3ccc[n+]([O-])c3)cc(N3CCCC[C@@H]3CCO)nc12

>  <test-system>
Nucleoprotein (Lymphocytic choriomeningitis virus (strain Armstrong))

>  <cat>
YES

$$$$
>  <compound>
CC1(C)O[C@@H]2C[C@@H]3[C@H]4C[C@@H](F)C5=CC(=O)C=C[C@]5(C)[C@@]4(F)[C@@H](O)C[C@]3(C)[C@]2(C(=O)CO)O1

>  <test-system>
Nucleoprotein (Lymphocytic choriomeningitis virus (strain Armstrong))

>  <cat>
NO

$$$$
>  <compound>
O=c1c2ccccc2nc2n1CCc1c-2[nH]c2ccccc12

>  <test-system>
Nucleoprotein (Lymphocytic choriomeningitis virus (strain Armstrong))

>  <cat>
NO

$$$$
>  <compound>
CC1CCC2C(C)C3C(CC4[C@@H]5CC=C6C[C@@H](O)CC[C@]6(C)C5CC[C@]34C)N2C1 (stereo partly drawn)

>  <test-system>
Nucleoprotein (Lymphocytic choriomeningitis virus (strain Armstrong))

>  <cat>
NO

$$$$
>  <compound>
CC(C)=CCC[C@](C)(O)C1CC[C@]2(C)C1[C@H](O)CC1[C@@]3(C)CC[C@H](O[C@@H]4O[C@H](CO)[C@@H](O)[C@H](O)[C@H]4O[C@@H]4O[C@H](CO)[C@@H](O)[C@H](O)[C@H]4O)C(C)(C)C3CC[C@]12C (stereo partly drawn)

>  <test-system>
Nucleoprotein (Lymphocytic choriomeningitis virus (strain Armstrong))

>  <cat>
NO

$$$$
>  <compound>
O=C(O)c1cc(=O)c2ccccc2[nH]1

>  <test-system>
Nucleoprotein (Lymphocytic choriomeningitis virus (strain Armstrong))

>  <cat>
NO

$$$$
>  <compound>
O=C1CCC(c2ccc(-n3ccnc3)cc2)=NN1

>  <test-system>
Nucleoprotein (Lymphocytic choriomeningitis virus (strain Armstrong))

>  <cat>
NO

$$$$

Reference for the values: PubChem BioAssay (NCATS)
